- Test system: M14 melanoma
- protocolSummary: NCI tumour cell line growth inhibition, 48 h
metricName: TGI (µM)
Numbers only, in µM.

molecule	measured
CC(Nc1ccc(Cl)c(Cl)c1)c1ccncc1 (stereo not given)	68.2

Let us move to another entry and its TGI.
Enquiry: Supply TGI measured with M14 melanoma for CCNC(=O)Oc1ccc(/C(=C(/C)Cc2ccc(OC)cc2)c2ccc(OCCN(CC)CC)cc2)cc1 .
Return: 3.62

====

For each entry below, report its TGI value.
- System: HL-60(TB) leukemia
- protocolSummary: NCI tumour cell line growth inhibition, 48 h

Solved entries:
compound	assayTarget	TGI
C/C(=N\NC(=O)c1ccccc1O)c1cccc(/C(C)=N/NC(=O)c2ccccc2O)n1.O=S(=O)([O-])[O-].[Fe+2]	HL-60(TB) leukemia	0.341 µM
CCc1nc2ccc(N=Nc3c(O)ccc4ccccc34)cc2[nH]1	HL-60(TB) leukemia	29.8 µM
O=C(/C=C/c1cccc([N+](=O)[O-])c1)c1ccc([N+](=O)[O-])cc1	HL-60(TB) leukemia	> 100 µM

Below are some compounds; for each one, tell me its TGI.
1. COC1CC(OC2C(C)OC(OC3C(C)OC(OC4C(C)OC(O[C@H]5CC[C@@]6(C)C(=CC[C@]7(O)[C@@H]6C[C@@H](OC(C)=O)[C@@]6(C)[C@]7(O)CC[C@@]6(O)C(C)=O)C5)CC4OC)CC3OC)CC2OC)OC(C)C1O (stereo partly specified)
2. COC(=O)[C@@H]1Cc2c([nH]c3ccccc23)[C@H](c2ccccc2)N1
3. COc1ccc(S(=O)(=O)N(CC(=O)O)c2ccccc2)cc1

Return:
1: > 25 µM; 2: > 100 µM; 3: > 100 µM

====

For each entry below, report its TGI value.
- Test system: RXF 393 renal
- protocolSummary: NCI tumour cell line growth inhibition, 48 h

compound	TGI
NS(=O)(=O)c1cc(C(=O)O)c(O)c2ccccc12	> 100 µM
CCc1nc2ccc(N=Nc3c(O)ccc4ccccc34)cc2[nH]1	25.6 µM
CCCCCCCCCOCC(COP(=O)([O-])OCC[N+](C)(C)C)OC (stereo not given)	> 100 µM
Clc1ccccc1-c1nnc2c(Cc3ccccc3)nc3ccccc3n12	> 100 µM
CCCc1cc(COC)c(C#N)c(=O)[nH]1	> 100 µM
C/C(=C(\c1ccc(OCCN2CCCCCC2)cc1)c1ccc(OC(=O)c2ccccc2)cc1)c1ccc(Cl)cc1	8.18 µM
COc1c(-c2ccccc2)nc2ccc(Oc3ccccc3)nn12	> 73.6 µM
N#Cc1cnc(Nc2cc(NC[C@H]3CNCCO3)c(C(F)(F)F)cn2)cn1	18.2 µM
N/N=C(/Cc1nc2ccc(C(=O)c3ccccc3)cc2[nH]c1=O)C(=O)Nc1ccc([N+](=O)[O-])cc1[N+](=O)[O-]	> 100 µM
COC(=O)c1oc2c(C(=O)/C=C/c3ccc(OC)cc3)c(OCCN(C)C)ccc2c1C	14.6 µM

Below are some compounds; for each one, tell me its TGI.
1. CC(=O)NC(NCCN)(c1ccccc1)c1ccccc1
2. C/C(=N\NC(=O)c1ccccc1O)c1cccc(/C(C)=N/NC(=O)c2ccccc2O)n1.O=S(=O)([O-])[O-].[Fe+2]
3. CC(=O)[C@H]1CCC/C=C/[C@@H]2C[C@H](O)C[C@H]2[C@H](O)/C=C/C(=O)O1
4. CC(C)(Cl)C(Br)CCC(Br)(CCl)C(Cl)CBr (stereo not given)
5. CNS(=O)(=O)NNS(=O)(=O)c1ccc(OC)cc1
6. Cc1cc2c(-c3nc4ccccn4c3N)c(O)c(O)cc2c(O)c1-c1c(C)cc2c(-c3nc4ccccn4c3N)c(O)c(O)cc2c1O
7. CCOc1ccn(-c2ccc(F)cc2)c(=O)c1C(=O)Nc1ccc(Oc2ccnc(N)c2Cl)c(F)c1
8. COc1cc2c(c(OC)c1OC)-c1ccc(SC)c(=O)cc1[C@@H](O)CC2

Return:
1: > 100 µM; 2: > 100 µM; 3: 0.742 µM; 4: > 10 µM; 5: > 100 µM; 6: 18 µM; 7: 36.8 µM; 8: > 100 µM

Below are some compounds; for each one, tell me its TGI.
1. CSCSCC(CO)NC(=O)/C(C)=C\c1c(C)[nH]c(=O)[nH]c1=O (stereo not given)
2. O=C1CC(CC(=O)c2ccc(Br)cc2)C(=O)/C1=C(/O)c1ccc(Br)cc1 (stereo not given)

Return:
1: > 250 µM; 2: > 100 µM

====

- Tested on: HCC-2998 colon
- protocolSummary: NCI tumour cell line growth inhibition, 48 h
metricName: TGI (µM)
One number for each entry, in µM.

molecule	TGI (µM)
COC(C)(C)/C=C/c1[nH]c2ccccc2c1CC(=O)NCCc1cn(C(c2ccccc2)(c2ccccc2)c2ccccc2)cn1	2.95
C=CCOC(=O)C1=C(C)NC2=N[C@H](CCCCCCCCC)C[C@@H]3CCC1N23 (stereo not given in full)	48.4

Enquiry: Respond only with TGI recorded for COC1(OC)C2(Cl)C(Cl)=C(Cl)C1(Cl)C1C2C2CC1(C(=O)O)c1ccccc12 (stereo not given)
Return: 50.7

====

- Tested on: OVCAR-5 ovarian
- protocolSummary: NCI tumour cell line growth inhibition, 48 h
For each entry below, report its TGI value.

compound	TGI
CC(=O)NCC1OC2COC(c3ccccc3)OC2C(NC(=O)c2ccccc2)C1OC(=O)c1ccccc1 (centres undefined)	> 100 µM
CN1CCN(C(=O)COc2ccc(/C=C3\CC4C5CC=C6CC(Cl)CCC6(C)C5CCC4(C)C3=O)cc2)CC1 (centres undefined)	> 100 µM
Clc1ccc(CCN[C@H]2CCCC[C@H]2N2CCCC2)cc1Cl	78.1 µM

Below are some compounds; for each one, tell me its TGI.
1. Cc1cc(Nc2nc(N[C@@H](C)c3ncc(F)cn3)ncc2Cl)n[nH]1
2. O=C(c1ccccc1)N1CCC(CC2(c3cc4ccccc4[nH]3)OCCO2)CC1

Return:
1. > 100 µM
2. > 100 µM

Below are some compounds; for each one, tell me its TGI.
1. Nc1nc(NCCCO)cc(=O)[nH]1
2. Cc1ccc2c(=O)cc(-c3ccc4ccccc4c3)[nH]c2n1

Return:
1: > 100 µM; 2: > 100 µM

Below are some compounds; for each one, tell me its TGI.
1. O=C1/C(=C/c2ccc(Cl)cc2)CNC/C1=C\c1ccc(Cl)cc1
2. C=C1C(=O)O[C@H]2C1C[C@@H](OC(C)=O)/C(C)=C/CC[C@@]1(C)O[C@H]21 (some centres undefined)
3. C#CCN(c1ccc(C(=O)N[C@@H](CCC(=O)N[C@H](CCC(=O)O)C(=O)O)C(=O)O)cc1)C1CCc2cc3nc(CO)[nH]c(=O)c3cc21 (some centres undefined)
4. C/C(=C(\c1ccc(OCCN2CCCCCC2)cc1)c1ccc(OC(=O)c2ccccc2)cc1)c1ccc(Cl)cc1
5. O=C1Nc2nccnc2C(=O)N2CCC[C@@H]12
6. O=C(NCC1CCCO1)c1ccc(NC2=C(Cl)C(=O)N(Cc3ccccc3)C2=O)cc1 (centres undefined)

Return:
13.4 µM
31.5 µM
> 100 µM
8.82 µM
> 100 µM
32.8 µM

====

- System: NCI/ADR-RES ovarian
- protocolSummary: NCI tumour cell line growth inhibition, 48 h
For each entry below, report its TGI value.

Solved entries:
compound	TGI
CCCc1cc(COC)c(C#N)c(=O)[nH]1	> 100 µM
COc1ccccc1/C=C/C1=NN(c2cccc(S(=O)(=O)O)c2)C2(C1)C(Cl)C(=O)N2c1nc2ccccc2s1 (centres undefined)	> 100 µM
Cc1cc(-c2cc(O)ccc2Cl)cc2nnc(Nc3ccc(OCCN4CCCC4)cc3)nc12	1.61 µM

Below are some compounds; for each one, tell me its TGI.
1. CN(C)c1c(C2OC(CO)C(O)C2O)c(=O)c1=O (centres undefined)
2. CC(C)=CCCC(C)CCOS(=O)C(F)(F)F (centres undefined)
3. CCOC(=O)c1c(NC(=S)Nc2ccc(Cl)cc2)sc2c1CCN(C)C2
4. CC(=O)NC(NCCN)(c1ccccc1)c1ccccc1
5. CCCCCC/C=C\CCCCCCCCCC1=C(CN2CCN(C)CC2)C(=O)C=C(OC)C1=O
6. O=[N+]([O-])c1cc([N+](=O)[O-])c(Nn2c3ccccc3c3ccccc32)c([N+](=O)[O-])c1

Return:
> 100 µM
30.4 µM
> 100 µM
> 100 µM
11.5 µM
> 100 µM

====

- System: SK-MEL-28 melanoma
- protocolSummary: NCI tumour cell line growth inhibition, 48 h; in the data active = GI50 below about 0.43 µM; inactive = the rest
Your answer must be one of the following: active, inactive

C/C(=C(\c1ccc(OCCN2CCCCCC2)cc1)c1ccc(OC(=O)c2ccccc2)cc1)c1ccc(Cl)cc1 inactive
COc1cc2c(c(OC)c1OC)-c1ccc(SC)c(=O)cc1[C@@H](O)CC2 inactive
COc1ccc([C@@]23Oc4cc(OC)cc(OC)c4[C@]2(O)[C@H](O)[C@H](C(N)=O)[C@H]3c2ccccc2)cc1 active
CCCCCCCC/C=C/CCCCCCCC1=NC(C)(C)CN1CCO inactive

Enquiry: Status in this test for Cc1cc(C)c(-c2c(N)cc(Br)cc2Br)c(N)c1 ?
Return: inactive

Where do the numbers come from? From PubChem BioAssay (NCI).
